Test system: Streptococcus pneumoniae ATCC 49619
protocol_details: Broth microdilution MIC, S. pneumoniae ATCC 49619
Format: cell-based
test_settings: ATCC49619, broth microdilution, 37° C., 20 hours, read-out: MIC S. pneumoniae ATCC 49619
assay_endpoint: MIC (µg/mL)

A. O=C(O)CCCCn1ncc2nc(NCc3ccc(Cl)c(Cl)c3)[nH]c(=O)c21 [Compound 219]
B. Cl.O=C(c1cn[nH]n1)N1CCC(n2ncc3nc(NCc4ccc(Cl)c(Cl)c4)[nH]c(=O)c32)CC1 [Compound 272]
C. COCCn1nc(Cl)c2nc(NCc3ccc(Cl)c(Cl)c3)[nH]c(=O)c21 [Compound 304]
Ask: Put the items above in order of decreasing MIC. Could you list the labels in the order requested?
Result: B, A, C
(B: 8 µg/mL, A: 4 µg/mL, C: 2 µg/mL)

----------
Tested on: Enterococcus faecium ATCC 700221 (VRE)
protocol_details: Broth microdilution MIC, E. faecium ATCC 700221 (VRE)
Format: cell-based
test_settings: Enterococcus faecium; broth microdilution, 37° C., 20 hours; read-out: MIC E. faecium ATCC 700221 (VRE)
assay_endpoint: MIC (µg/mL)

# example entries with known answers
compound	assay_value
Cc1ccnc(C(=O)N2CCC(n3ncc4nc(NCc5ccc(Cl)c(Cl)c5)[nH]c(=O)c43)CC2)c1.Cl [Compound 264]	1
O=c1[nH]c(NCc2ccc(Cl)c(Cl)c2)nc2cnn(C3CCOC3)c12 (stereo not drawn) [Compound 119]	2
Cc1noc(C)c1C(=O)N(C)CCn1ncc2nc(NCc3ccc(Cl)c(Cl)c3)[nH]c(=O)c21 [Compound 80]	16
O=C1CCC(Cn2ncc3nc(NCc4ccc(Cl)c(Cl)c4)[nH]c(=O)c32)N1 (stereo not drawn) [Compound 93]	4
CC(C)(C)OC(=O)N1CCOC(Cn2ncc3nc(NCc4ccc(Cl)c(Cl)c4)[nH]c(=O)c32)C1 (stereo not drawn) [Compound 148]	4

P. CC(C)(C)OC(=O)N1CCN(CCOCCn2ncc3nc(NCc4ccc(Cl)c(Cl)c4)[nH]c(=O)c32)CC1 [Compound 166]
Q. Cl.Cl.O=c1[nH]c(NCc2ccc(Cl)c(Cl)c2)nc2cnn(CCN3CCN(CCO)CC3)c12 [Compound 71]
Ask: Could you check which of P and Q has a smaller value for MIC? The response must carry the label of the picked entry.
Result: P

a. O=c1[nH]c(NCc2ccc(Cl)c(Cl)c2)nc2cnn(Cc3ccccc3)c12 [Compound 127]
b. Cl.O=C(c1ccncc1)N1CCC(n2ncc3nc(NCc4ccc(Cl)c(Cl)c4)[nH]c(=O)c32)C1 (stereo not drawn) [Compound 259]
c. CC(C)(C)OC(=O)N1CCC(n2ncc3nc(NCc4ccc(Cl)c(Cl)c4)[nH]c(=O)c32)CC1 [Compound 153]
d. O=C(CCCCn1ncc2nc(NCc3ccc(Cl)c(Cl)c3)[nH]c(=O)c21)NO [Compound 217]
e. O=C(Cn1ncc2nc(NCc3ccc(Cl)c(Cl)c3)[nH]c(=O)c21)N1CCOCC1 [Compound 158]
Ask: Please order the records by their reported MIC, lowest number first. List the labels in the requested order.
Result: c, b, e, d, a
(c: 2 µg/mL, b: 4 µg/mL, e: 8 µg/mL, d: 16 µg/mL, a: 32 µg/mL)

----------
Tested on: Enterococcus faecium ATCC 700221 (VRE)
protocol_details: Broth microdilution MIC, E. faecium ATCC 700221 (VRE)
Format: cell-based
test_settings: Enterococcus faecium; broth microdilution, 37° C., 20 hours; read-out: MIC E. faecium ATCC 700221 (VRE)
assay_endpoint: MIC (µg/mL)

Known MIC results, listed for orientation:
compound	assay_value
Cc1ccc(CNc2nc3cnn(C)c3c(=O)[nH]2)cc1C [Compound 33]	16
CCOC(=O)CCCn1ncc2nc(NCc3ccc(Cl)c(Cl)c3)[nH]c(=O)c21 [Compound 205]	2
Cc1noc(C)c1C(=O)NCCn1ncc2nc(NCc3ccc(Cl)c(Cl)c3)[nH]c(=O)c21 [Compound 79]	8

a. O=C(O)CCCCn1nc(F)c2nc(NCc3ccc(F)c(F)c3)[nH]c(=O)c21 [Compound 210]
b. CP(C)(=O)CCCCn1ncc2nc(NCc3ccc(Cl)c(Cl)c3)[nH]c(=O)c21 [Compound 146]
Ask: Which has the higher MIC, a or b ? Indicate your choice by writing its label.
Result: b
(b: 32 µg/mL, a: 16 µg/mL)

P. O=c1[nH]c(NCc2ccc(Cl)c(Cl)c2)nc2cnn(CCOC/C=N/O)c12 [Compound 191]
Q. CNCC(COC)OCCn1ncc2nc(NCc3ccc(Cl)c(Cl)c3)[nH]c(=O)c21.Cl (centres unmarked) [Compound 184]
Ask: Hi! Which is lower in terms of MIC, the first one P or the second one Q ? Respond using the label that marks the chosen record.
Result: P

A. O=c1[nH]c(NCc2ccc(Cl)c(Cl)c2)nc2cnn(CCOCCOP(=O)(O)O)c12 [Compound 296]
B. O=c1[nH]c(NCc2ccc(F)c(F)c2)nc2c(F)nn(CC3CCO3)c12 (centres unmarked) [Compound 315]
C. NC(=O)COCCn1ncc2nc(NCc3ccc(Cl)c(Cl)c3)[nH]c(=O)c21 [Compound 284]
Ask: Number of compounds to sort: 3. Sort criterion: MIC, ascending. When ranking, write the labels in the order the request describes.
Result: B, C, A
(B: 2 µg/mL, C: 8 µg/mL, A: 64 µg/mL)

P. Cc1cccnc1C(=O)N1CCC(n2ncc3nc(NCc4ccc(Cl)c(Cl)c4)[nH]c(=O)c32)CC1.Cl [Compound 262]
Q. Cl.N=C(N)NCCn1ncc2nc(NCc3ccc(Cl)c(Cl)c3)[nH]c(=O)c21 [Compound 292]
Ask: Parameter check: reported MIC is higher for which label, P or Q ? Kindly state the label of the option you pick.
Result: Q
